Data origin, for the record: PubChem BioAssay (EPA / NIEHS)

# Read-out: Pro-epidermal growth factor (Homo sapiens) (UniProt P01133)
# Test name: LTEA_HepaRG_EGF: Life Technologies and Expression Analysis (LTEA) Assay for Epidermal growth factor (EGF) using HepaRG (AID 2283489)
# Test settings: mRNA level, 48 h; actives raise or lower the signal
Calls of active or inactive are those of the source. How the source made its calls: active means hit-call score of the fitted dose curve at least 0.9, where 1 is the maximum; inactive means score below 0.9.
Labels: active, inactive

> print(dat)
                                    compound  category
 1  CCOC(=O)COc1cc(-n2ncc(C(F)(F)F)c(C)c2=O)c(F)cc1Cl  inactive
 2  CCN(Cc1c(F)cccc1Cl)c1c([N+](=O)[O-])cc(C(F)(F)F)cc1[N+](=O)[O-]    active
 3                   CCN(CC)C(=O)c1cccc(C)c1  inactive
 4  N[C@@H](Cc1cc(I)c(Oc2ccc(O)c(I)c2)c(I)c1)C(=O)O  inactive
 5  CCCCC(CC)COC(=O)c1ccccc1C(=O)O (configuration not stated)  inactive
 6                c1ccc2[nH]c(-c3cscn3)nc2c1  inactive
 7             O=C(c1ccc(O)cc1O)c1ccc(O)cc1O  inactive
 8  Cc1nn(C)c(Oc2ccccc2)c1C=NOCc1ccc(C(=O)OC(C)(C)C)cc1  inactive
 9              CCCOC(=O)c1ccc(C(=O)OCCC)nc1  inactive
10                        CCNc1nc(N)nc(Cl)n1  inactive
11                        CCCOC(=O)NCCCN(C)C  inactive
12                     O=C(c1ccccc1)C1CCCCC1  inactive

---

# Read-out: Vascular cell adhesion molecule 1 (VCAM1), VCAM1 (gene 7412)
# Test name: BSK_hDFCGF_VCAM1: BioMAP Diversity Plus: hDFCGF Assay for Vascular cell adhesion molecule 1 (VCAM1) Biomarker Activity (AID 2283065);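 on AC50: VCAM-1 protein level quantified by ELISA after 24 h chemical exposure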
# Test settings: primary human foreskin fibroblasts; actives raise or lower the signal
Activity calls are given as the source filed them. How the source made its calls: active means hit-call score of the fitted dose curve at least 0.9, where 1 is the maximum; inactive means score below 0.9.
Measure name: AC50

> print(dat)
                                    compound        meas.value
 1                   CCSC(=O)N(CC(C)C)CC(C)C          inactive
 2  CCOC(=O)C(C)Oc1ccc(Oc2nc3ccc(Cl)cc3o2)cc1 (stereo not given)          inactive
 3  CCC(C)OC(=O)N1CCCCC1CCO (stereo not given)          inactive
 4                c1ccc2[nH]c(-c3cscn3)nc2c1          inactive
 5                        CCNc1nc(N)nc(Cl)n1          inactive
 6  COC(=O)CSc1cc(N=c2sc(=O)n3n2CCCC3)c(F)cc1Cl          inactive
 7  COC(=O)c1c(Cl)nn(C)c1S(=O)(=O)NC(=O)Nc1nc(OC)cc(OC)n1          inactive
 8  Cc1nn(C)c(Oc2ccccc2)c1C=NOCc1ccc(C(=O)OC(C)(C)C)cc1  13.9 µM (active)
 9               CN(C)C(=O)Nc1ccc(Cl)c(Cl)c1          inactive
10  CCCCOC(=O)C(C)Oc1ccc(Oc2ccc(C(F)(F)F)cn2)cc1 (stereo not given)          inactive

---

# Assay system: rat CYP3A2, Cyp3a2 (gene 266682) (UniProt P05183)
# Sequence (P05183 whole entry, looked up): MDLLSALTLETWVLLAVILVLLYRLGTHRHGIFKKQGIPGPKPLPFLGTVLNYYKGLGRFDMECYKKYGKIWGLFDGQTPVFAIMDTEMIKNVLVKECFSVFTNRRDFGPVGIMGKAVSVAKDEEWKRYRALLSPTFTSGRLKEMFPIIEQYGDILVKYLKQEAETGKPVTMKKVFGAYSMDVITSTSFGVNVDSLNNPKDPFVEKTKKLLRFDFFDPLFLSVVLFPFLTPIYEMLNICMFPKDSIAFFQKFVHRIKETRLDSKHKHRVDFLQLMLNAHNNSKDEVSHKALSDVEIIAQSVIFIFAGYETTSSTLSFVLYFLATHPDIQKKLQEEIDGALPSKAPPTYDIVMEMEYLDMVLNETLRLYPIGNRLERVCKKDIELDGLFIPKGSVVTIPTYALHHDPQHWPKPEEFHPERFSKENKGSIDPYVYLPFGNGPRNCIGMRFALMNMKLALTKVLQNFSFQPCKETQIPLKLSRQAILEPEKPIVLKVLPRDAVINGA
# Test name: NVS_ADME_rCYP3A2: NovaScreen (NVS) CYP450-related Enzyme Activity (ADME) Assay for rat CYP3A2 (AID 2283128)
Activity calls are given as the source filed them. The calls were made as follows: active = hit-call score of the fitted dose curve at least 0.9, where 1 is the maximum; inconclusive = response in the unintended direction; inactive = score below 0.9.
Measure name: AC50

> print(dat)
                                   compound         meas.value
1  CC(C)(C)[C@@H](O)[C@@H](Cc1ccc(Cl)cc1)n1cncn1   4.88 µM (active)
2  C=CCOC(Cn1ccnc1)c1ccc(Cl)cc1Cl (configuration not stated)  0.874 µM (active)
3  CCN(Cc1c(F)cccc1Cl)c1c([N+](=O)[O-])cc(C(F)(F)F)cc1[N+](=O)[O-]   4.04 µM (active)
4             CC(C)(c1ccc(O)cc1)c1ccc(O)cc1   8.05 µM (active)
5                       N#CSCSc1nc2ccccc2s1   7.06 µM (active)
6  CCCCC(CC)CN1C(=O)C2C3C=CC(C3)C2C1=O (configuration not stated)   6.87 µM (active)
7      Oc1ccc(C(c2ccc(O)cc2)C(Cl)(Cl)Cl)cc1    2.7 µM (active)

---

# Test name: IUF_NPC2c_oligodendrocyte_migration_120hr: Leibniz Research Institute for Environmental Medicine (IUF) 120-hour Neural Progenitor Cell Migration Assay for Oligodendrocyte Migration (NPC2c) (AID 2284297);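 further: O4-positive oligodendrocyte migration distance divided by radial glia migration distance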
Activity calls are given as the source filed them. Rule for the calls: active = hit-call score of the fitted dose curve at least 0.9, where 1 is the maximum; inactive = score below 0.9.
Labels: active, inactive

> print(dat)
                              smiles.record  category
1  S=C(S)NCCNC(=S)S.[Mn+2].[S-]C([S-])=NCCN=C([S-])[S-].[Zn+2]  inactive
2                      CSC(=O)c1cccc2nnsc12  inactive
3                            O=C(O)c1ccccc1  inactive
4                         CCCN(CCC)C(=O)SCC  inactive
5  Cc1nn(C)c(Oc2ccccc2)c1C=NOCc1ccc(C(=O)OC(C)(C)C)cc1    active

---

# Read-out: Monokine induced gamma interferon (MIG), CXCL9 (gene 4283)
# Test name: BSK_hDFCGF_MIG: BioMAP Diversity Plus: hDFCGF Assay for Monokine induced gamma interferon (MIG) Biomarker Activity (AID 2283063)
# Test settings: primary human foreskin fibroblasts; actives raise or lower the signal
Active and inactive are the calls of the source. The calls were made as follows: active = hit-call score of the fitted dose curve at least 0.9, where 1 is the maximum; inactive = score below 0.9.
Labels: active, inactive

> print(dat)
                                   molecule  category
1  CCCCC(CC)CN1C(=O)C2C3C=CC(C3)C2C1=O (stereo unspecified)  inactive
2  CCOC(=O)C(C)Oc1ccc(Oc2cnc3cc(Cl)ccc3n2)cc1 (stereo unspecified)  inactive
3                    CC(C)CCCCCCc1ccc(O)cc1    active
4                     O=C(c1ccccc1)C1CCCCC1  inactive
5  CC1(C)C(C=C(Cl)Cl)C1C(=O)OCc1cccc(Oc2ccccc2)c1 (stereo unspecified)  inactive
6  COC(=O)c1ccccc1S(=O)(=O)NC(=O)Nc1nc(OC(F)F)cc(OC(F)F)n1  inactive

---

# Read-out: Plasminogen activator inhibitor-1 (PAI1), SERPINE1 (gene 5054)
# Test name: BSK_BE3C_PAI1: BioMAP Diversity Plus: BE3C Assay for Plasminogen activator inhibitor-1 (PAI1) Biomarker Activity (AID 2283037)
# Test settings: primary human bronchial epithelial cells; actives raise or lower the signal
Calls of active or inactive are those of the source. The calls were made as follows: active = hit-call score of the fitted dose curve at least 0.9, where 1 is the maximum; inactive = score below 0.9.
Measure name: AC50

> print(dat)
                                    compound        meas.value
 1                    CC(C)CCCCCCc1ccc(O)cc1    31 µM (active)
 2  COC(=O)c1ccccc1S(=O)(=O)NC(=O)Nc1nc(OC(F)F)cc(OC(F)F)n1          inactive
 3  CCC(O)=C1C(=O)CC(C(=O)O)CC1=O (stereo unspecified)          inactive
 4  CCOC(=O)C(C)Oc1ccc(Oc2nc3ccc(Cl)cc3o2)cc1 (stereo unspecified)  33.5 µM (active)
 5              CCCOC(=O)c1ccc(C(=O)OCCC)nc1          inactive
 6  CCCCC(CC)CN1C(=O)C2C3C=CC(C3)C2C1=O (stereo unspecified)  28.1 µM (active)
 7            CCCCOCCOCCOCc1cc2c(cc1CCC)OCO2          inactive
 8  CCCCCOC(=O)COc1cc(N2C(=O)C3=C(CCCC3)C2=O)c(F)cc1Cl          inactive
 9                                    OB(O)O          inactive
10                            O=C(O)c1ccccc1          inactive
11                         CCCN(CCC)C(=O)SCC          inactive

---

# Read-out: Cyclin D2 (CCND2), CCND2 (gene 894)
# Test name: LTEA_HepaRG_CCND2: Life Technologies and Expression Analysis (LTEA) Assay for Cyclin D2 (CCND2) using HepaRG (AID 2283449);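 further: CCND2 transcript measured by TaqMan qRT-PCR and normalised to three housekeeping genes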
# Test settings: mRNA level, 48 h; actives raise or lower the signal
The source made the active and inactive calls. How the source made its calls: active means hit-call score of the fitted dose curve at least 0.9, where 1 is the maximum; inactive means score below 0.9.
Labels: active, inactive

> print(dat)
                                    compound  category
 1  COC(=O)c1ccc(I)cc1S(=O)(=O)NC(=O)Nc1nc(C)nc(OC)n1  inactive
 2  CC(C)(C)[C@@H](O)[C@@H](Cc1ccc(Cl)cc1)n1cncn1  inactive
 3            CCCCOCCOCCOCc1cc2c(cc1CCC)OCO2  inactive
 4                       N#CSCSc1nc2ccccc2s1  inactive
 5  S=C(S)NCCNC(=S)S.[Mn+2].[S-]C([S-])=NCCN=C([S-])[S-].[Zn+2]  inactive
 6                    CC(C)CCCCCCc1ccc(O)cc1  inactive
 7  C#C[C@]1(O)CC[C@H]2[C@@H]3CCC4=CC(=O)CC[C@@H]4[C@H]3CC[C@@]21CC  inactive
 8                        CCNc1nc(N)nc(Cl)n1  inactive
 9  C[C@]12CC[C@@H]3c4ccc(O)cc4C[C@@H](CCCCCCCCCS(=O)CCCC(F)(F)C(F)(F)F)[C@H]3[C@@H]1CC[C@@H]2O (stereo partly specified)    active
10           CCOC(=O)NCCOc1ccc(Oc2ccccc2)cc1  inactive
11              CCCOC(=O)c1ccc(C(=O)OCCC)nc1  inactive
12                        CCCOC(=O)NCCCN(C)C  inactive
13                   CCSC(=O)N(CC(C)C)CC(C)C  inactive
14                   CCN(CC)C(=O)c1cccc(C)c1  inactive
15  CCCCCOC(=O)COc1cc(N2C(=O)C3=C(CCCC3)C2=O)c(F)cc1Cl  inactive
16  C=CCOC(Cn1ccnc1)c1ccc(Cl)cc1Cl (stereo unspecified)  inactive
17             CC(C)(c1ccc(O)cc1)c1ccc(O)cc1  inactive
18  COC(=O)CSc1cc(N=c2sc(=O)n3n2CCCC3)c(F)cc1Cl  inactive
19                     O=C(c1ccccc1)C1CCCCC1  inactive
20                       CCOC(=O)c1ccc(O)cc1  inactive
21  N[C@@H](Cc1cc(I)c(Oc2ccc(O)c(I)c2)c(I)c1)C(=O)O  inactive
22               CN(C)C(=O)Nc1ccc(Cl)c(Cl)c1  inactive
23  CCCCC(CC)CN1C(=O)C2C3C=CC(C3)C2C1=O (stereo unspecified)  inactive
24  CC(=O)S[C@@H]1CC2=CC(=O)CC[C@]2(C)[C@H]2CC[C@@]3(C)[C@@H](CC[C@@]34CCC(=O)O4)[C@H]12  inactive
25                  COc1c(Cl)ccc(Cl)c1C(=O)O  inactive
26  CCCCOC(=O)[C@@H](C)Oc1ccc(Oc2ccc(C(F)(F)F)cn2)cc1  inactive
